Each entry below carries its recorded TL1A Binding Level (Early).
Target: T1, human TL1A extracellular domain with N-terminal HIS and FLAG tag (human, UniProt O95150 72-251)
T1 construct: whole entry named. ~70 kDa fraction purified by gel filtration
T1 sequence: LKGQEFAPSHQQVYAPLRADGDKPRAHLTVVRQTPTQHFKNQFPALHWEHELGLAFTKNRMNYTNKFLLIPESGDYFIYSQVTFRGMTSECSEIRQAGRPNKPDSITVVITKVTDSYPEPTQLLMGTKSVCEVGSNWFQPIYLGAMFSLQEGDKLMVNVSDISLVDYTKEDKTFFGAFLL
Assay: SPR run 2; purified antibody on Protein A; TL1A 10 ug/mL; timepoint 44
Use RU as the unit, but write only the number.

Completed entries (count: 2):
* 320-193 (antibody, human IgG1, name in Kabat numbering, V domains shown, human IgG1, lambda) VH: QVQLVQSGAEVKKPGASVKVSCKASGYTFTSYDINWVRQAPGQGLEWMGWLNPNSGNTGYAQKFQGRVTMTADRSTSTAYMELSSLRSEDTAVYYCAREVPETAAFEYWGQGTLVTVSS VL: QSVLTQPPSVSGAPGQRVTISCSSSSSDIGAGLGVHWYQQLPGTAPKLLIEGYYNRPSGVPDRFSGSKSGTSASLTITGLLPEDEGDYYCQSYDGTLSALFGGGTKLTVLG | 103
* 320-201 (antibody, human IgG1, name in Kabat numbering, V domains shown, human IgG1, lambda) VH: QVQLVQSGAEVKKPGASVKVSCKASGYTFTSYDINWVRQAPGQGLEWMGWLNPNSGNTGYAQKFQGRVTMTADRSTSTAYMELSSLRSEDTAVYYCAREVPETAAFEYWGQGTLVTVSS VL: QSVLTQPPSVSGAPGQRVTISCTASSSDIGAGLGVHWYQQLPGTAPKLLIEGYYNRPSGVPDRFSGSKSGTSASLTITGLLPEDEGDYYCQSYDGTLSALFGGGTKLTVLG | 73

Field: next binder
The binder 320-221 (antibody, human IgG1, name in Kabat numbering, V domains shown, human IgG1, lambda) VH: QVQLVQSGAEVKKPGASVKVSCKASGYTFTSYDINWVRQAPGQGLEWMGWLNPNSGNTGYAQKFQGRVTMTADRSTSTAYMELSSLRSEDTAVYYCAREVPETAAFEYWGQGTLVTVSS VL: QSVLTQPPSVSGAPGQRVTISCTSSKSDIGAGLGVHWYQQLPGTAPKLLIEGYYNRPSGVPDRFSGSKSGTSASLTITGLLPEDEGDYYCQSYDGTLSALFGGGTKLTVLG showed TL1A Binding Level (Early) equal to 99
